Biological target: OXA-24/40 (Acinetobacter baumannii, UniProt Q8RLA6)
Experiment: kinetic competition with ampicillin as reporter substrate
Format: biochemical
EXPERIMENTAL ENDPOINT: Ki (nM)

# MOLECULAR STRING, EXPERIMENTAL ENDPOINT, VALUE REPORTED
records = [
    ("C[C@@H](O)[C@H]1C(=O)N2C(C(=O)O)=C(S[C@@H]3CN[C@H](C(=O)N(C)C)C3)[C@H](C)[C@H]12", "Ki", 18),
]
